Please provide measured ED50 for the entries that follow.
# Tested on: Mus musculus
# assay remarks: Analgesic activity against acetic acid induced writhing test in mouse after peroral administration
# Type: functional
# condition summary: Mus musculus, po; read-out: ED50
# number only, unit mg/kg dropped from output

Output measured ED50 for this item: CCc1nc2c(C(F)(F)F)cccc2c(O)c1C(=O)Nc1ncco1
15

Output measured ED50 for this item: O=C(Nc1ncc[nH]1)c1cnc2c(C(F)(F)F)cccc2c1O
18

Output measured ED50 for this item: COCc1nc2c(C(F)(F)F)cccc2c(O)c1C(=O)Nc1nccs1
25

Output measured ED50 for this item: O=C(Nc1nccs1)c1cnc2ccc(C(F)(F)F)cc2c1O
40

Output measured ED50 for this item: CCC(=O)N[C@@H](CC)c1nc2c(C(F)(F)F)cccc2c(O)c1C(=O)Nc1nccs1
20

Output measured ED50 for this item: O=C(Nc1nccs1)c1c(C(F)(F)F)nc2c([S+]([O-])C(F)(F)F)cccc2c1O (stereo not given)
20

====

Please provide measured ED50 for the entries that follow.
# Test system: Rattus norvegicus
# assay remarks: Anti-arthritis activity against adjuvant-induced arthritis in rats after peroral administration
# Type: functional
# number only, unit mg/kg dropped from output

Output measured ED50 for this item: CCC(O)c1nc2c(C(F)(F)F)cccc2c(O)c1C(=O)Nc1nccs1 (stereo in doubt; 89)
1.6

Output measured ED50 for this item: CCC(=O)OC(CC)c1nc2c(C(F)(F)F)cccc2c(O)c1C(=O)Nc1nccs1 (stereo in doubt; 102)
0.7

Output measured ED50 for this item: CCC(=O)OC(CC)c1nc2c(C(F)(F)F)cccc2c(O)c1C(=O)Nc1nccs1 (stereo in doubt; 104)
0.6

Output measured ED50 for this item: CCC(O)c1nc2c(C(F)(F)F)cccc2c(O)c1C(=O)Nc1nccs1 (stereo in doubt; 91)
0.5

====

# tested system: Polyunsaturated fatty acid 5-lipoxygenase (Rattus norvegicus)
# Sequence (P12527 whole entry): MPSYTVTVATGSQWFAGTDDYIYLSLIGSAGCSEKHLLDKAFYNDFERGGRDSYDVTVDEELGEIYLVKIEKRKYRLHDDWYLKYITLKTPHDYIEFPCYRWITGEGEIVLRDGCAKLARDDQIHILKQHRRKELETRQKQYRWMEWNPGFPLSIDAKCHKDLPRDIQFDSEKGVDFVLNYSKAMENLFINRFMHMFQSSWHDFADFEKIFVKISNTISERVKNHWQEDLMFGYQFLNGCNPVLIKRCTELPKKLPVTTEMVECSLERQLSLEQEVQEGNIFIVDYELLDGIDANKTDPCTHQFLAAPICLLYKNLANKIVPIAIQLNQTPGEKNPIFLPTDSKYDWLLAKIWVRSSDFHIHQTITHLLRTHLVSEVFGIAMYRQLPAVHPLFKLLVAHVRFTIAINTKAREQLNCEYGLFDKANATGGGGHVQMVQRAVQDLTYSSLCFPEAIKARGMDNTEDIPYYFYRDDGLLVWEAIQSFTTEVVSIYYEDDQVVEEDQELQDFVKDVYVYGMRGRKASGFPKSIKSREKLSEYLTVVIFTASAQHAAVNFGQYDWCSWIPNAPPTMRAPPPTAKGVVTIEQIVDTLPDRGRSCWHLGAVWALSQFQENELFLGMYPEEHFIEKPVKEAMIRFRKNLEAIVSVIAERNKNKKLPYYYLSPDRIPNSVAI
# assay remarks: Inhibition of 5-lipoxygenase from rat peritoneal neutrophils in vitro
Please provide measured IC50 for the entries that follow.
# number only, unit µM dropped from output

Output measured IC50 for this item: CC[C@H](N)c1nc2c(C(F)(F)F)cccc2c(O)c1C(=O)Nc1nccs1
18

Output measured IC50 for this item: O=C(Nc1nccs1)c1c(C(Cl)Cl)nc2c(C(F)(F)F)cccc2c1O
2

Output measured IC50 for this item: CCC(=O)OC(CC)c1nc2c(C(F)(F)F)cccc2c(O)c1C(=O)Nc1nccs1 (stereo in doubt; 102)
3

Output measured IC50 for this item: O=C(Nc1nccs1)c1cnc2c(C(F)(F)F)cccc2c1O
35

Output measured IC50 for this item: O=C(Nc1nccs1)c1c(C(F)(F)F)nc2c(C(F)(F)F)cccc2c1O
3

Output measured IC50 for this item: CCC(O)c1nc2c(C(F)(F)F)cccc2c(O)c1C(=O)Nc1nccs1 (stereo in doubt; 89)
1.1

Output measured IC50 for this item: CCC(=O)N[C@@H](CC)c1nc2c(C(F)(F)F)cccc2c(O)c1C(=O)Nc1nccs1
2

====

# tested system: Cyclooxygenase (Bos taurus, UniProt O62664+O62698)
# assay remarks: Inhibition of bovine Prostaglandin G/H synthase in seminal vesicle microsomes in vitro
Please provide measured log10(IC50) for the entries that follow.
Note the log scale: values are log10 of IC50 expressed in nM.

Output measured log10(IC50) for this item: CC[C@H](N)c1nc2c(C(F)(F)F)cccc2c(O)c1C(=O)Nc1nccs1
3.15

Output measured log10(IC50) for this item: O=C(Nc1nccs1)c1c(C(Cl)Cl)nc2c(C(F)(F)F)cccc2c1O
3.26

Output measured log10(IC50) for this item: O=C(Nc1nccs1)c1cnc2c(C(F)(F)F)cccc2c1O
3.45

Output measured log10(IC50) for this item: CCC(=O)OC(CC)c1nc2c(C(F)(F)F)cccc2c(O)c1C(=O)Nc1nccs1 (stereo in doubt; 102)
3.32

Output measured log10(IC50) for this item: CCC(=O)N[C@@H](CC)c1nc2c(C(F)(F)F)cccc2c(O)c1C(=O)Nc1nccs1
2.60

Output measured log10(IC50) for this item: CCC(O)c1nc2c(C(F)(F)F)cccc2c(O)c1C(=O)Nc1nccs1 (stereo in doubt; 89)
2.30

Output measured log10(IC50) for this item: O=C(Nc1nccs1)c1c(C(F)(F)F)nc2c(C(F)(F)F)cccc2c1O
2.60
